Where these numbers come from: paper PMC6222614

Catalogue of CC50 readings, one per entry.
Test system: MT-4 cells
Test: Cytotoxicity against mock-infected MT-4 cells (MTT)
Assay type: cell-based, human
Conditions: concentration reducing viability of mock-infected MT-4 cells by 50%, 96 h
Write the number in µM without appending the unit.

Known CC50 results, listed for orientation:
Output measured CC50 for this item: O=[N+]([O-])c1cc(NC(=S)Nc2ccc(C(F)(F)F)cc2)ccc1Cl
7

Output measured CC50 for this item: O=[N+]([O-])c1cc(NC(=S)Nc2ccc(Cl)cc2Cl)ccc1Cl
8

Output measured CC50 for this item: O=[N+]([O-])c1cc(NC(=S)Nc2ccccc2F)ccc1Cl
13

Continuing:
Output measured CC50 for this item: O=[N+]([O-])c1cc(NC(=S)Nc2cccc(F)c2)ccc1Cl
9

Output measured CC50 for this item: O=[N+]([O-])c1cc(NC(=S)NCc2ccccc2)ccc1Cl
36.7

Output measured CC50 for this item: Cc1ccc(Cl)cc1NC(=S)Nc1ccc(Cl)c([N+](=O)[O-])c1
8.2

Output measured CC50 for this item: O=[N+]([O-])c1cc(NC(=S)Nc2ccc(Cl)cc2)ccc1Cl
7

Output measured CC50 for this item: O=[N+]([O-])c1cc(NC(=S)Nc2cccc(Br)c2)ccc1Cl
8

Output measured CC50 for this item: O=[N+]([O-])c1cc(NC(=S)Nc2ccc(Br)cc2)ccc1Cl
6.6

###

result_type: melting point

Known melting point results, listed for orientation:
Output measured melting point for this item: O=[N+]([O-])c1cc(NC(=S)NCc2ccco2)ccc1Cl [Compound 30]
144 to 146 °C

Output measured melting point for this item: Cc1ccc(NC(=S)Nc2ccc(Cl)c([N+](=O)[O-])c2)cc1 [Compound 20]
156 to 158 °C

Continuing:
Output measured melting point for this item: COc1ccc(NC(=S)Nc2ccc(Cl)c([N+](=O)[O-])c2)cc1 [Compound 21]
149 to 150.5 °C

Output measured melting point for this item: C=C(C)CNC(=S)Nc1ccc(Cl)c([N+](=O)[O-])c1 [Compound 27]
96 to 98 °C

###

System: S. epidermidis MRSE 413/11
Test: MIC, hospital methicillin-resistant strain
Assay type: cell-based
Details: Staphylococcus epidermidis
// boundary case: MIC equal to 20 µg/mL maps to not satisfied; strictly smaller maps to satisfied

Lab note: MIC threshold 20 µg/mL. Does this molecule come in strictly under it? Cc1ccc(NC(=S)Nc2ccc(Cl)c([N+](=O)[O-])c2)cc1 [Compound 20]
satisfied

Lab note: MIC threshold 20 µg/mL. Does this molecule come in strictly under it? CCCCc1ccc(NC(=S)Nc2ccc(Cl)c([N+](=O)[O-])c2)c(C)c1 [Compound 22]
satisfied

Lab note: MIC threshold 20 µg/mL. Does this molecule come in strictly under it? CSCCCNC(=S)Nc1ccc(Cl)c([N+](=O)[O-])c1 [Compound 29]
not satisfied

Lab note: MIC threshold 20 µg/mL. Does this molecule come in strictly under it? C=CCNC(=S)Nc1ccc(Cl)c([N+](=O)[O-])c1 [Compound 28]
not satisfied

Lab note: MIC threshold 20 µg/mL. Does this molecule come in strictly under it? O=C(O)c1cn(C2CC2)c2cc(N3CCNCC3)c(F)cc2c1=O [Ciprofloxacin, reference compound]
not satisfied

Lab note: MIC threshold 20 µg/mL. Does this molecule come in strictly under it? O=[N+]([O-])c1cc(NC(=S)NC2CC3CCC2C3)ccc1Cl (stereo not drawn) [Compound 24]
satisfied

Continuing:
Lab note: MIC threshold 20 µg/mL. Does this molecule come in strictly under it? C=C(C)CNC(=S)Nc1ccc(Cl)c([N+](=O)[O-])c1 [Compound 27]
not satisfied

Lab note: MIC threshold 20 µg/mL. Does this molecule come in strictly under it? O=[N+]([O-])c1cc(NC(=S)NCc2ccco2)ccc1Cl [Compound 30]
not satisfied

Lab note: MIC threshold 20 µg/mL. Does this molecule come in strictly under it? O=[N+]([O-])c1cc(NC(=S)Nc2ccccc2)ccc1Cl [Compound 23]
satisfied
